Listed below: melting point values for each entry.
observation-type: melting point (°C)

test-smiles	observation-type	reported
O=S(=O)(c1ccc(Cl)cc1)c1ccc(Cl)s1	melting point	108
C=CCOc1ccc(-c2ccc(C(=O)O)cc2)cc1	melting point	360
CC(C)S(=O)(=O)c1cnc(Cl)c(Cl)c1	melting point	146

* * *

Listing: melting point of selected compounds

compound	melting point
O=C1CN(C(=O)CN2CC(c3ccc(F)cc3)CC2=O)CCN1 (centres undefined)	200 to 203 °C
CN1CCN(C(=O)OC2C3=C(SCCS3)C(=O)N2c2ccc3ccc(Cl)cc3n2)CC1 (centres undefined)	192 °C
O=C(NO)c1ccc(C(=O)NOCc2cccc3ccccc23)cc1	192 to 194 °C
CCOc1nc(NCc2ccco2)nc(Nc2ccc(OC)c(OC)c2)n1	100 to 102 °C
O=S(=O)(Nc1ccc2[nH]c3c(c2c1)CCNC3)c1c(Cl)nc2sccn12	242 to 244 °C
NS(=O)(=O)c1cccc(NC(=O)c2cnn3c(C(F)F)cc(-c4ccc(Cl)c(Cl)c4)nc23)c1	306 °C
Cn1ccc2ncnc(Oc3ccc(NC(=O)Nc4cc(C(F)(F)F)ccc4F)c(Cl)c3)c21	193 to 197 °C
N#Cc1cc2n(c1)CCc1ccccc1C2=O	146 to 147 °C
O=C(O)/C=C/C=C(c1cccc(Cl)c1)c1cccc(Cl)c1	142 to 145 °C
